Biological target: SARS-Cov-2 3CLpro (Severe acute respiratory syndrome coronavirus 2)
Construct: 3CLpro and HRV3C was added using a Multidrop Combi
Test: biochemical
Settings: 3CLpro, 30 mins preincubation, SAMDI-MS; read-out: SARS-Cov-2 IC50 (class)
pIC50: −log10 of the molar value.
endpoint label: pIC50

compound="CC(C)(C)[C@H](NC(=O)C(F)(F)F)C(=O)N1C[C@@H]2[C@H]3CC[C@H](CC3)[C@@H]2[C@H]1C(=O)N[C@H](C#N)C[C@@H]1CCNC1=O (mixture of isomers) [Compound 71]" measured_result="> 7.70"
compound="CC(C)(C)[C@H](NC(=O)C1(C2CC2)CC1)C(=O)N1C[C@H]2[C@@H]([C@H]1C(=O)N[C@H](C#N)C[C@@H]1CCNC1=O)[C@H]1C=C[C@@H]2C1 [Example 35]" measured_result="6.70 to 7.70"
compound="CC(C)(C)[C@H](NC(=O)C(F)(F)C(F)(F)F)C(=O)N1C[C@H]2[C@@H]([C@H]1C(=O)N[C@H](C#N)CC1CC3(COC3)NC1=O)[C@H]1C=C[C@@H]2C1 (stereo partly shown) [Compound 107]" measured_result="> 7.70"
compound="CC(C)(C)[C@H](NC(=O)C1(F)CC1)C(=O)N1C[C@H]2[C@@H]([C@H]1C(=O)N[C@H](C#N)C[C@@H]1CCNC1=O)[C@H]1C=C[C@@H]2C1 [Example 30]" measured_result="> 7.70"
compound="CC(C)(C)[C@H](NC(=O)CC(F)(F)F)C(=O)N1C[C@H]2[C@@H]([C@H]1C(=O)N[C@H](C#N)C[C@@H]1Oc3ccncc3NC1=O)[C@H]1C=C[C@@H]2C1 [Compound 110]" measured_result="> 7.70"
compound="CC(C)(C)[C@H](NC(=O)C(F)(F)F)C(=O)N1C[C@@H]2[C@@H]3CC[C@@H](C3)[C@@H]2[C@H]1C(=O)N[C@H](C#N)C[C@@H]1CC2(CC2)NC1=O [Example 15]" measured_result="> 7.70"
compound="CN1CC(C[C@@H](C#N)NC(=O)[C@@H]2[C@@H]3[C@H](CN2C(=O)[C@@H](NC(=O)C(F)(F)F)C(C)(C)C)[C@@H]2C=C[C@H]3C2)C(=O)N1 (stereo partly shown) [Compound 49]" measured_result="> 7.70"
compound="CC(C)(C)[C@H](OCC1CC1)C(=O)N1C[C@H]2[C@@H]([C@H]1C(=O)N[C@H](C#N)C[C@@H]1CCNC1=O)[C@H]1C=C[C@@H]2C1 [Compound 56]" measured_result="5.70 to 6.70"
compound="CC(C)(C)[C@H](NC(=O)CC(F)(F)F)C(=O)N1C[C@H]2[C@@H]([C@H]1C(=O)N[C@H](C#N)C[C@@H]1OCCNC1=O)[C@H]1C=C[C@@H]2C1 [Compound 132]" measured_result="> 7.70"
compound="C[C@@H](OC(F)F)[C@H](NC(=O)C(F)(F)F)C(=O)N1C[C@H]2[C@@H]([C@H]1C(=O)N[C@H](C#N)C[C@@H]1CCNC1=O)[C@H]1C=C[C@@H]2C1 [Example 98]" measured_result="> 7.70"

====

Target: SARS-Cov-2 3CLpro (Severe acute respiratory syndrome coronavirus 2, UniProt P0DTD1)
Construct: 3CLpro and HRV3C was added using a Multidrop Combi
Assay: biochemical
Settings: 3CLpro, 30 mins preincubation, SAMDI-MS; read-out: SARS-Cov-2 IC50 (class)
endpoint label: IC50

compound="Cc1cn(C(C(=O)N2C[C@H]3[C@@H]([C@H]2C(=O)N[C@H](C#N)C[C@@H]2CCNC2=O)[C@H]2C=C[C@@H]3C2)C(C)(C)C)nn1 (some centres unmarked)" measured_result="20 to 200 nM"
compound=CC(C)(C)[C@H](NC(=O)C12CC(C1)C2)C(=O)N1C[C@H]2[C@@H]([C@H]1C(=O)N[C@H](C#N)C[C@@H]1CCNC1=O)[C@H]1C=C[C@@H]2C1 measured_result="< 20 nM"
compound=C=C(C)C(C)(C)[C@H](NC(=O)C(F)(F)F)C(=O)N1C[C@H]2[C@@H]([C@H]1C(=O)N[C@H](C#N)C[C@@H]1CCNC1=O)[C@H]1C=C[C@@H]2C1 measured_result="< 20 nM"
compound=CC(C)(C)[C@H](NC(=O)C(F)(F)F)C(=O)N1C[C@H]2[C@@H]([C@H]1C(=O)N[C@H](C#N)C[C@@H]1CC3(CC3)NC1=O)[C@H]1C=C[C@@H]2C1 measured_result="< 20 nM"
compound=CC(C)(C)[C@H](NC(=O)C(F)(F)F)C(=O)N1C[C@H]2[C@@H]([C@H]1C(=O)N[C@H](C#N)C[C@@H]1Oc3cccnc3NC1=O)[C@H]1C=C[C@@H]2C1 measured_result="< 20 nM"

====

Test: Cytotoxicity in HeLa cells without OC43 virus (cell-titer-glo)
Conditions: human
endpoint label: CC50 at 6 days

structure_string=CC(C)(C)[C@H](NC(=O)C(F)(F)F)C(=O)N1C[C@H]2[C@@H]([C@H]1C(=O)N[C@H](C#N)C[C@@H]1CCNC1=O)[C@H]1C=C[C@@H]2C12CC2 measured_result="> 100 µM"

====

Measured IC50 accompanies every entry in the list below.
Target: SARS-Cov-2 3CLpro (Severe acute respiratory syndrome coronavirus 2, UniProt P0DTD1)
Construct: 3CLpro and HRV3C was added using a Multidrop Combi
Assay: biochemical
Conditions: 3CLpro, 30 mins preincubation, SAMDI-MS; read-out: SARS-Cov-2 IC50 (class)
endpoint label: IC50

molecule="CC(C)(C)[C@H](NC(=O)C(F)(F)F)C(=O)N1C[C@H]2[C@@H]([C@H]1C(=O)N[C@H](C#N)CC1Cc3ccccc3NC1=O)[C@H]1C=C[C@@H]2C1 (stereo partly shown)" endpoint_label=IC50 measured_result="< 20 nM"
molecule=CC(C)(C)[C@H](NC(=O)C(F)(F)F)C(=O)N1C[C@H]2[C@@H]([C@H]1C(=O)N[C@H](C#N)C[C@@H]1CCNC1=O)[C@H]1CC[C@@H]2C12CC2 endpoint_label=IC50 measured_result="< 20 nM"
molecule="CC(C)(C)[C@H](NC(=O)C(F)(F)F)C(=O)N1C[C@@H]2[C@@H]3C=C[C@@H]([C@H]4C[C@@H]34)[C@@H]2C1C(=O)N[C@H](C#N)C[C@@H]1CCNC1=O (stereo partly shown)" endpoint_label=IC50 measured_result="< 20 nM"
molecule=C[C@@H](OC1CC1)[C@H](NC(=O)C(F)(F)C(F)(F)F)C(=O)N1C[C@H]2[C@@H]([C@H]1C(=O)N[C@H](C#N)C[C@@H]1CCNC1=O)[C@H]1C=C[C@@H]2C1 endpoint_label=IC50 measured_result="< 20 nM"
molecule=CO[C@](C)(C(=O)N[C@H](C(=O)N1C[C@H]2[C@@H]([C@H]1C(=O)N[C@H](C#N)C[C@@H]1CCNC1=O)[C@H]1C=C[C@@H]2C1)C(C)(C)C)C(F)(F)F endpoint_label=IC50 measured_result="20 to 200 nM"
molecule=CC(C)(C)[C@H](NC(=O)C(F)(F)F)C(=O)N1C[C@H]2[C@@H]([C@H]1C(=O)N[C@H](C#N)C[C@@H]1CCNC1=O)[C@H]1C=C[C@@H]2C1(F)F endpoint_label=IC50 measured_result="< 20 nM"
molecule=CC(C)(C)[C@H](NC(=O)C(F)(F)F)C(=O)N1C[C@H]2[C@@H]([C@H]1C(=O)N[C@H](C#N)C[C@@H]1OCC3(CC3)NC1=O)[C@H]1C=C[C@@H]2C1 endpoint_label=IC50 measured_result="< 20 nM"
molecule=CC(C)(C)[C@@H](C(=O)N1C[C@H]2[C@@H]([C@H]1C(=O)N[C@H](C#N)C[C@@H]1CCNC1=O)[C@H]1C=C[C@@H]2C1)N1CCCC1=O endpoint_label=IC50 measured_result="2000 to 20000 nM"
molecule=CC(C)(C)[C@H](NC(=O)C(C)(C)C(F)(F)F)C(=O)N1C[C@H]2[C@@H]([C@H]1C(=O)N[C@H](C#N)C[C@@H]1CCNC1=O)[C@H]1C=C[C@@H]2C1 endpoint_label=IC50 measured_result="< 20 nM"
molecule=Cc1cc(C(=O)N[C@H](C(=O)N2C[C@H]3[C@@H]([C@H]2C(=O)N[C@H](C#N)C[C@@H]2CCNC2=O)[C@H]2C=C[C@@H]3C2)C(C)(C)C)no1 endpoint_label=IC50 measured_result="20 to 200 nM"
